system: Escherichia coli TOP10; test: shrunken log2 fold change of peptide-encoding DNA abundance (4.5 h post-induction vs induction); higher = less antimicrobial activity (less host growth inhibition); details: time post-induction: 4.5 h; library: site-saturation at positions 5, 18, 19, 20
Readout label: shrunken log2 fold change
# answer = number (no unit)

Example cases with answers are listed next.
RRIRNRPPRLPRPRPRPANYPRP : -0.0161
RRIRQRPPRLPRPRPRPEQPPRP : 0.393
RRIRHRPPRLPRPRPRPFDGPRP : -0.258
RRIRTRPPRLPRPRPRPGFTPRP : -0.0298

What shrunken log2 fold change value was documented for this sequence, "RRIRARPPRLPRPRPRPPGSPRP" ? 0.759

What shrunken log2 fold change value was documented for this sequence, "RRIRQRPPRLPRPRPRPDEDPRP" ? -0.0326

What shrunken log2 fold change value was documented for this sequence, "RRIRMRPPRLPRPRPRPGARPRP" ? 1.11

What shrunken log2 fold change value was documented for this sequence, "RRIRVRPPRLPRPRPRPGTNPRP" ? -0.254

What shrunken log2 fold change value was documented for this sequence, "RRIRGRPPRLPRPRPRPVGFPRP" ? 0.984

* * *

In this section, each of the sequences is paired with its reported shrunken log2 fold change.
test system: Escherichia coli TOP10; assay: shrunken log2 fold change of peptide-encoding DNA abundance (4.5 h post-induction vs induction); higher = less antimicrobial activity (less host growth inhibition); settings: time post-induction: 4.5 h; library: site-saturation at positions 5, 18, 19, 20
# answer = number (no unit)

Example cases with answers are listed next.
RRIRNRPPRLPRPRPRPSRVPRP : 0.0304
RRIRLRPPRLPRPRPRPARNPRP : 0.483
RRIRDRPPRLPRPRPRPWWTPRP : -0.327
RRIRWRPPRLPRPRPRPWMIPRP : -0.0414
RRIRCRPPRLPRPRPRPIFIPRP : -0.339

# get_value(readout= shrunken log2 fold change, system= Escherichia coli TOP10) for "RRIRNRPPRLPRPRPRPCVTPRP" -0.0849

# get_value(readout= shrunken log2 fold change, system= Escherichia coli TOP10) for "RRIRTRPPRLPRPRPRPNSGPRP" 0.00712

# get_value(readout= shrunken log2 fold change, system= Escherichia coli TOP10) for "RRIRIRPPRLPRPRPRPINKPRP" -1.11

# get_value(readout= shrunken log2 fold change, system= Escherichia coli TOP10) for "RRIRSRPPRLPRPRPRPCNRPRP" 0.0326

# get_value(readout= shrunken log2 fold change, system= Escherichia coli TOP10) for "RRIRSRPPRLPRPRPRPMNTPRP" -0.647

* * *

test system: Escherichia coli TOP10; assay: shrunken log2 fold change of peptide-encoding DNA abundance (4.5 h post-induction vs induction); higher = less antimicrobial activity (less host growth inhibition); details: time post-induction: 4.5 h; library: site-saturation at positions 5, 18, 19, 20;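 note: peptides expressed intracellularly from a pBAD plasmid library in pooled LB shake-flask culture, induced with 0.3% L-arabinose, DNA abundance read by NGS, three biological replicates, DESeq2 with apeglm shrinkage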
Readout label: shrunken log2 fold change
# answer = number (no unit)

RRIRIRPPRLPRPRPRPGMIPRP : -0.309
RRIRRRPPRLPRPRPRPHVTPRP : -0.154
RRIRKRPPRLPRPRPRPIVEPRP : 0.00111
RRIRKRPPRLPRPRPRPREWPRP : 1.77
RRIRERPPRLPRPRPRPGTFPRP : -0.378
RRIRYRPPRLPRPRPRPFNMPRP : -0.202

Kindly consider the entry below.
What shrunken log2 fold change value was documented for this sequence, "RRIRARPPRLPRPRPRPMFFPRP" ? 0.0123
